# assay system: IKK-2 (Homo sapiens, UniProt O14920, S177E/S181E)
# Construct: His6
# Sequence (O14920 1-756 S177E/S181E): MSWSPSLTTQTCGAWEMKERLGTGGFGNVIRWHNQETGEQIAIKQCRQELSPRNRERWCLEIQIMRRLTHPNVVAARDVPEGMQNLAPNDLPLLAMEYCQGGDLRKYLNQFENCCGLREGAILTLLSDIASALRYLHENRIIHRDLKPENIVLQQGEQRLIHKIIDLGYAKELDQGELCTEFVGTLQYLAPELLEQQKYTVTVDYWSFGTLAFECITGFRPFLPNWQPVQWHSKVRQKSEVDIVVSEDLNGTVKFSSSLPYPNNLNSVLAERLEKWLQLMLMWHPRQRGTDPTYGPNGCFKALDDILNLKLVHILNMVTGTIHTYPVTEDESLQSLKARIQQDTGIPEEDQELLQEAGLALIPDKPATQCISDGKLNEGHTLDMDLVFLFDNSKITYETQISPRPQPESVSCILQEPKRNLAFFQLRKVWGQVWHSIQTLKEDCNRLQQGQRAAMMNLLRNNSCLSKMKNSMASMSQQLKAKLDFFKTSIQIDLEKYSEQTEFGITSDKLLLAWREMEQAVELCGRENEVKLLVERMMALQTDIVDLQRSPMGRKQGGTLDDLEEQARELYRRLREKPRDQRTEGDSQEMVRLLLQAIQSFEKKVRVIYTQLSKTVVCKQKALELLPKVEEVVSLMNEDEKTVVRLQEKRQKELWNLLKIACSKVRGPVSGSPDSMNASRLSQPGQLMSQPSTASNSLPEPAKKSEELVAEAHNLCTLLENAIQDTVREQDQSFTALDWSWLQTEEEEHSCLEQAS
# test: IKK-2 Enzyme Assay
# Format: biochemical
# test context: IC50 value in the IKK-2 Enzyme Assay, preferred compounds; 1 μM or less
measure: IC50

Measured IC50 of "O=C(c1ccc(Nc2nccc(-c3ccc(Cl)cc3)n2)cc1)N1CCC2(CC1)OCCO2" : ≤ 1 µM

---

# assay system: IKK-2 (Homo sapiens, UniProt O14920, S177E/S181E)
# Construct: His6
# test: IKK-2 Enzyme Assay
# Type: biochemical
# test context: more preferred compounds; 500 nM or less; read-out: IC50 value in the IKK-2 Enzyme Assay
Structures can show the parent of a compound that is named as a salt.
measure: IC50

{"columns": ["compound", "IC50"],
 "data": [
  ["CC(C)(C)OC(=O)N1CCN(C(=O)c2ccc(Nc3nccc(-c4ccc(Cl)cc4)n3)cc2)CC1 [Compound 17-36]", "≤ 500 nM"]
]}

Reported IC50 for O=C(c1ccc(Nc2nccc(-c3ccc(SCCCO)cc3)n2)cc1)N1CCN(C(=O)c2ccco2)CC1 [Compound 17-34] was ≤ 500 nM

// IC50 value for CC(C)NC(=O)CN1CCN(C(=O)c2ccc(Nc3nccc(-c4ccc(Cl)cc4)n3)cc2)CC1 [Compound 17-141] : ≤ 500 nM

Sample O=C(c1ccc(Nc2nccc(-c3ccc(Cl)cc3)n2)cc1)N1CCN(C(=O)c2ccco2)CC1 [Compound 17-159] ; IC50 observed: ≤ 500 nM

Data point: NC(=O)c1ccc(Nc2nccc(-c3ccc(S(=O)(=O)c4ccncc4)cc3)n2)cc1 [Compound 3-8] ; IC50 = ≤ 500 nM

Data point: O=C(c1ccc(Nc2nccc(-c3ccc(Cl)cc3)n2)cc1)N1CCNCC1 [Compound 18, hydrochloride] ; IC50 = ≤ 500 nM

Origin of measurements: patent US7442699B2
